Provenance of the data: patent US20250144067A1

tested on: NCI-H292 lung cancer cells; assay: FDA drug screening, complete media vs cholesterol-free media without statin (TABLE 1); format: cell-based, human; details: complete vs cholesterol-free media; >0 enhanced anti-cancer activity, about 0 neutral, <0 antagonist
Kindly state Difference for each of the entries shown.
One number for each entry.

NC(=O)[C@@H]1CC[C@@H]2CN1C(=O)N2OS(=O)(=O)O [Avibactam (sodium hydrate)] = 0.24
CCc1ccc(CCOc2ccc(CC3SC(=O)NC3=O)cc2)nc1 (centres unmarked) = 0.27
NC[C@H]1O[C@H](O[C@H]2[C@H](O)[C@@H](O[C@H]3O[C@H](CO)[C@@H](O)[C@H](N)[C@H]3O)[C@H](N)C[C@@H]2N)[C@H](N)[C@@H](O)[C@@H]1O = 0.57
Nc1nc(NC2CC2)c2ncn([C@H]3C=C[C@@H](CO)C3)c2n1 = 0.56
C[N+](C)(C)CCO.[Cl-] [Choline (chloride)] = 0.49

Provide the reported Difference of each entry below, same order.
1. CC1CCC(C(C)C)C(O)C1 (centres unmarked)
2. CCCc1nc(C(C)(C)O)c(C(=O)OCc2oc(=O)oc2C)n1Cc1ccc(-c2ccccc2-c2nnn[nH]2)cc1
3. CCN1CCN(C(=O)N[C@@H](C(=O)N[C@@H]2C(=O)N3C(C(=O)O)=C(CSc4nnnn4C)CS[C@H]23)c2ccc(O)cc2)C(=O)C1=O [Cefoperazone]

Given back:
1: 0.19; 2: 0.42; 3: 0.31

----------
test system: NCI-H292 lung cancer cells; assay: FDA drug screening, complete media vs cholesterol-free media with simvastatin (TABLE 2); format: cell-based, human; conditions: NCI-H292 cells, FDA drug library screen, complete media
Structures can show the parent of a compound that is named as a salt.
Threshold check on Complete Media: strictly below 1 is Satisfied; on or above 1 is Not satisfied.

# count of solved cases: 5
COc1ccc(-c2cc(C(F)F)nn2-c2ccc(S(N)(=O)=O)cc2)cc1F [Deracoxib] = Not satisfied
NNC(=O)c1ccncc1 [Isoniazid] = Not satisfied
COc1cc2nc(N3CCN(C(=O)[C@@H]4CCCO4)CC3)nc(N)c2cc1OC [(S)-Terazosin] = Satisfied
Cc1c(C)c2c(c(C)c1O)CCC(C)(COc1ccc(CC3SC(=O)NC3=O)cc1)O2 (stereo not shown) [Troglitazone] = Satisfied
CC(O)C(=O)O.CCOc1ccc2nc3cc(N)ccc3c(N)c2c1 [Ethacridine (lactate)] = Satisfied

Asked: Would you kindly verify if Complete Media of Oc1c(I)cc(I)c2cccnc12 [Diiodohydroxyquinoline] is strictly less than 1?
Given back: Not satisfied

Asked: Would you kindly verify if Complete Media of CC(C)c1c(C(=O)Nc2ccccc2)c(-c2ccccc2)c(-c2ccc(F)cc2)n1CC[C@@H](O)C[C@@H](O)CC(=O)O [Atorvastatin (hemicalcium salt)] is strictly less than 1?
Given back: Satisfied

Asked: Would you kindly verify if Complete Media of CC(NCCc1ccc(O)cc1)C(O)c1ccc(O)cc1 (stereo not shown) [Ritodrine (hydrochloride)] is strictly less than 1?
Given back: Satisfied

Asked: Would you kindly verify if Complete Media of CC(=O)O[C@@]12CO[C@@H]1C[C@H](O)[C@@]1(C)C(=O)[C@H](O)C3=C(C)[C@@H](OC(=O)[C@H](O)[C@@H](NC(=O)OC(C)(C)C)c4ccccc4)C[C@@](O)([C@@H](OC(=O)c4ccccc4)[C@H]21)C3(C)C [Docetaxel (Trihydrate)] is strictly less than 1?
Given back: Satisfied

Asked: Would you kindly verify if Complete Media of CC#CC(=O)N1CCC[C@H]1c1nc(-c2ccc(C(=O)Nc3ccccn3)cc2)c2c(N)nccn12 [Acalabrutinib] is strictly less than 1?
Given back: Not satisfied

Asked: Would you kindly verify if Complete Media of CC(=O)[C@@]1(O)CC[C@H]2[C@@H]3CCC4=CC(=O)CC[C@]4(C)[C@H]3CC[C@@]21C [17-Hydroxyprogesterone] is strictly less than 1?
Given back: Satisfied

Asked: Would you kindly verify if Complete Media of OC[C@@H](O)CN1CCN(c2ccccc2)CC1 [Levodropropizine] is strictly less than 1?
Given back: Satisfied

Asked: Would you kindly verify if Complete Media of CC(CCc1ccccc1)NC(C)C(O)c1ccc(O)cc1 (stereo not shown) [Nylidrin (hydrochloride)] is strictly less than 1?
Given back: Satisfied

Asked: Would you kindly verify if Complete Media of CN(C/C=C/C#CC(C)(C)C)Cc1cccc2ccccc12 [Terbinafine] is strictly less than 1?
Given back: Satisfied

Asked: Would you kindly verify if Complete Media of Cl.NCCCC[C@H](N)C(=O)O [L-Lysine hydrochloride] is strictly less than 1?
Given back: Not satisfied

Asked: Would you kindly verify if Complete Media of c1ccc2c(c1)CCCC2C1=NCCN1 (stereo not shown) [Tetrahydrozoline (hydrochloride)] is strictly less than 1?
Given back: Satisfied

----------
system: NCI-H292 lung cancer cells; assay: FDA drug screening, complete media vs cholesterol-free media without statin (TABLE 1); type: cell-based, human; details: NCI-H292 cells in cholesterol-free media without statin
Kindly state Cholesterol-free for each of the entries shown.

Provide the reported Cholesterol-free of each entry below, same order.
1. Cc1cccc(N(C)C(=S)Oc2ccc3ccccc3c2)c1 [Tolnaftate]
2. C1CCN2C[C@@H]3C[C@@H](CN4CCCC[C@@H]34)[C@H]2C1 [(−)-Sparteine]
3. OC[C@H]1O[C@@H](c2ccc(F)c(Cc3cc4ccccc4s3)c2)[C@H](O)[C@@H](O)[C@@H]1O
4. C=C1[C@H](CO)[C@@H](O)C[C@@H]1n1cnc2c(=O)[nH]c(N)nc21 [Entecavir (monohydrate)]
5. CCCCCCCCc1ccc(CCC(N)(CO)CO)cc1
6. COc1ccccc1N1CCN(CC(O)COc2cccc3ccccc23)CC1 (centres unmarked)

Given back:
1. 1.723
2. 1.432
3. 1.769
4. 1.519
5. 1.481
6. 1.94

Provide the reported Cholesterol-free of each entry below, same order.
1. C[C@]12CC[C@@H]3c4ccc(OS(=O)(=O)O)cc4CC[C@H]3[C@@H]1CCC2=O [Estropipate]
2. C[C@H]1CN(C[C@H](Cc2ccccc2)C(=O)NCC(=O)O)CC[C@@]1(C)c1cccc(O)c1 [Alvimopan (dihydrate)]

Given back:
[1.475, 1.958]

----------
tested on: NCI-H292 lung cancer cells; test: FDA drug screening, complete media vs cholesterol-free media with simvastatin (TABLE 2); format: cell-based, human; conditions: complete media vs cholesterol-free media + simvastatin (0.04 μM); >0 enhanced anti-cancer activity, about 0 neutral, <0 antagonist
Structures can show the parent of a compound that is named as a salt.
valueType: Difference

CC(C)=CCC/C(C)=C/CC/C(C)=C/CC/C=C(\C)CC/C=C(\C)CCC=C(C)C = −0.19
NC(=O)c1ncn([C@@H]2O[C@H](CO)[C@@H](O)[C@H]2O)c1O = −0.14
CC(=O)c1c(C)c2cnc(Nc3ccc(N4CCNCC4)cn3)nc2n(C2CCCC2)c1=O [Palbociclib (hydrochloride)] = −0.22
CN(C)C(=O)c1cc2cnc(Nc3ccc(N4CCNCC4)cn3)nc2n1C1CCCC1 [Ribociclib hydrochloride] = −0.16
CN(C/C=C/C#CC(C)(C)C)Cc1cccc2ccccc12 [Terbinafine hydrochloride] = −0.12
CCOC(=O)C(C)(C)Oc1ccc(Cl)cc1 [Clofibrate] = −0.13
CC[C@H]1CN2CC[C@H]1C[C@@H]2[C@@H](O)c1ccnc2ccc(OC)cc12 [Hydroquinidine] = −0.27

Please examine the following record next.
compound CCc1nn(CCCN2CCN(c3cccc(Cl)c3)CC2)c(=O)n1CCOc1ccccc1 [Nefazodone (hydrochloride)] , Difference observed: −0.75

----------
test system: NCI-H292 lung cancer cells; assay: FDA drug screening, complete media vs cholesterol-free media with simvastatin (TABLE 2); format: cell-based, human; conditions: NCI-H292 cells, FDA library drug in complete media
Where a name gives a salt, the structure may show the parent alone.
valueType: Complete Media
Answers are plain numbers.

Nc1nc(=O)c2c([nH]1)NC[C@@H](CNc1ccc(C(=O)N[C@@H](CCC(=O)O)C(=O)O)cc1)N2C=O = 0.9515
COc1cc(C(=O)NCc2ccc(OCCN(C)C)cc2)cc(OC)c1OC [Trimethobenzamide hydrochloride] = 0.874
Cn1c(=O)c2c(ncn2CC2OCCO2)n(C)c1=O = 1.024

Please examine the following record next.
compound CC[N+](C)(CC)CCOC(=O)C(O)(c1ccccc1)c1ccccc1 [Methylbenactyzium Bromide] , Complete Media observed: 1.081

----------
test system: NCI-H292 lung cancer cells; assay: FDA drug screening, complete media vs cholesterol-free media with simvastatin (TABLE 2); assay type: cell-based, human; conditions: NCI-H292 cells, FDA library drug in cholesterol-free media with simvastatin 0.04 μM
Kindly state Cholesterol-free media + simvastatin (0.04 μM) for each of the entries shown.

C=C1CC[C@@H]2[C@](C)(CO)[C@H](O)CC[C@@]2(C)[C@@H]1/C=C/C1=CCOC1=O [Dehydroandrographolide] = 1.79
CC(C)=CCC/C(C)=C/CC/C(C)=C/C=C/C(C)=C/C(=O)O = 1.273
CONC(=O)Nc1ccc(-c2sc3c(c2CN(C)C)c(=O)n(-c2ccc(OC)nn2)c(=O)n3Cc2c(F)cccc2F)cc1 = 1.344
CO[C@H]1O[C@H](COS(=O)(=O)O)[C@@H](O[C@@H]2O[C@@H](C(=O)O)[C@@H](O[C@H]3O[C@H](COS(=O)(=O)O)[C@@H](O[C@@H]4O[C@H](C(=O)O)[C@@H](O[C@H]5O[C@H](COS(=O)(=O)O)[C@@H](O)[C@H](O)[C@H]5NS(=O)(=O)O)[C@H](O)[C@H]4O)[C@H](OS(=O)(=O)O)[C@H]3NS(=O)(=O)O)[C@H](O)[C@H]2OS(=O)(=O)O)[C@H](O)[C@H]1NS(=O)(=O)O [Fondaparinux (sodium)] = 1.182
NC(=O)CN1CC(O)CC1=O (centres unmarked) = 1.234

Provide the reported Cholesterol-free media + simvastatin (0.04 μM) of each entry below, same order.
1. Cc1c(OCC(F)(F)F)ccnc1C[S+]([O-])c1nc2ccccc2[nH]1 (centres unmarked)
2. Cn1nnnc1SCC1=C(C(=O)[O-])N2C(=O)[C@@H](NC(=O)[C@H](O)c3ccccc3)[C@H]2SC1.[Na+] [Cefamandole (sodium)]

Given back:
[1.103, 2.169]

Provide the reported Cholesterol-free media + simvastatin (0.04 μM) of each entry below, same order.
1. CC1(C)S[C@@H]2[C@H](NC(=O)[C@H](N)c3ccccc3)C(=O)N2[C@H]1C(=O)O
2. CCc1c(Cl)c(O)c(Cl)c(O)c1C(=O)O[C@H]1[C@H](O)[C@H](OC)[C@H](OC/C2=C\C=C\C[C@H](O)/C(C)=C/[C@H](CC)[C@@H](O[C@@H]3OC(C)(C)[C@@H](OC(=O)C(C)C)[C@H](O)[C@@H]3O)/C(C)=C/C(C)=C/C[C@@H]([C@@H](C)O)OC2=O)O[C@@H]1C
3. CSCC1CN(/N=C/c2ccc([N+](=O)[O-])o2)C(=O)O1 (centres unmarked)
4. CC(C[N+](C)(C)C)OC(N)=O.[Cl-] (centres unmarked) [Bethanechol (chloride)]
5. CC1(C)NC(=O)N(c2ccc([N+](=O)[O-])c(C(F)(F)F)c2)C1=O [Nilutamide]

Given back:
[1.07, 1.494, 1.397, 1.34, 1.474]

Provide the reported Cholesterol-free media + simvastatin (0.04 μM) of each entry below, same order.
1. COc1cc(C(=O)NC2CCCNC2)cc(OC)c1OC (centres unmarked) [Troxipide]
2. Nc1ccn([C@@H]2CS[C@H](CO)O2)c(=O)n1

Given back:
1. 1.578
2. 1.644
